- assay info: Plasma pharmacokinetics after single IV cassette infusion
- Assay type: in vivo, cynomolgus monkey
- experimental conditions: RIF 20 mg/kg orally vs vehicle, monkeys
quantity kind: increase of plasma exposure (AUClast) with RIF compared to the vehicle group (fold)

chemical smiles	measured value
CN(C)c1ccc2c(c1)c(=O)n(-c1ccc(C[C@H](NC(=O)c3c(Cl)cccc3Cl)C(=O)O)cc1)c(=O)n2C	9.1
Nc1c(CC(=O)O)cccc1C(=O)c1ccc(Br)cc1	2.1
CC(C)c1nc(N(C)S(C)(=O)=O)nc(-c2ccc(F)cc2)c1/C=C/[C@@H](O)C[C@@H](O)CC(=O)O	2.3
CC1=C(CCC(=O)O)c2cc3nc(cc4[nH]c(cc5[nH]c(cc1n2)c(C)c5CCC(=O)O)c(CCC(=O)O)c4C)C(CCC(=O)O)=C3C	8.8

---

- assay info: Pharmacokinetics of rifampin after oral administration
- Assay type: in vivo
- experimental conditions: male, cynomolgus monkey, plasma, po, 20 mg/kg

chemical smiles	Tmax
CO[C@H]1/C=C/O[C@@]2(C)Oc3c(C)c(O)c4c(O)c(c(/C=N/N5CCN(C)CC5)c(O)c4c3C2=O)NC(=O)/C(C)=C\C=C\[C@H](C)[C@H](O)[C@@H](C)[C@@H](O)[C@@H](C)[C@H](OC(C)=O)[C@@H]1C	3.5 to 4.5 h

---

- assay info: Monkey PBPK model fitting of plasma and liver concentrations
- Design: species or system cynomolgus monkey
- experimental conditions: cynomolgus monkey, plasma, intravenous, 0.5 mg/kg
quantity kind: CL renal (L/h/kg)

compound	quantity kind	measured value
CC(C)c1nc(N(C)S(C)(=O)=O)nc(-c2ccc(F)cc2)c1/C=C/[C@@H](O)C[C@@H](O)CC(=O)O [Rosuvastatin]	CL renal	0.264

---

Entries annotated with measured Kp
- assay info: Monkey PBPK model fitting of plasma and liver concentrations
- Set-up: species or system cynomolgus monkey
- experimental conditions: cynomolgus monkey, plasma and liver, intravenous, 0.5 mg/kg, Kp,scalar, PBPK fitted, vehicle, estimate (%CV)

molecule	Kp
CC(C)c1nc(N(C)S(C)(=O)=O)nc(-c2ccc(F)cc2)c1/C=C/[C@@H](O)C[C@@H](O)CC(=O)O [Rosuvastatin]	1.1
Nc1c(CC(=O)O)cccc1C(=O)c1ccc(Br)cc1 [Bromfenac]	0.5

---

- assay info: Pharmacokinetics of rifampin after oral administration
- Format: in vivo
- experimental conditions: male, cynomolgus monkey, plasma, oral, 20 mg/kg

compound	uom	concentration at 3.25 h
CO[C@H]1/C=C/O[C@@]2(C)Oc3c(C)c(O)c4c(O)c(c(/C=N/N5CCN(C)CC5)c(O)c4c3C2=O)NC(=O)/C(C)=C\C=C\[C@H](C)[C@H](O)[C@@H](C)[C@@H](O)[C@@H](C)[C@H](OC(C)=O)[C@@H]1C [RIF, rifampin]	µM	20.8

These data points were gathered from paper PMC8504809.
